From: the nanobody polyreactivity screen of Harvey et al. (2022)

Assay procedure: yeast display, Sf9 membrane polyspecificity reagent, FACS + sequencing; frameworks hold sequencing errors
Endpoint label: polyreactivity (PSR sort gate)

QVQHVESGGGLVQAGGSLRLSCAASGSIFWYYAMGWYRKAPVKERELVAAITSSGGRTYYADSVKGRFTISRDNAKNTVYLQMNSLKQEDTAVYYCAARQWWRYDYWGQGTQVTVSS high polyreactivity
QVQLVESGRGLVQAGVSLRLSCAASGRIFTNNAMGLYRQAPGKERELVAAINVSGGRTYYADSVKGRFTISRENAKNTVYLQMNSLKPEDTAVYYCNKVKETYMDYWGQGTQVTVSS high polyreactivity

###

Assay procedure: yeast display, Sf9 membrane polyspecificity reagent, FACS + sequencing; frameworks hold sequencing errors
Endpoint label: polyreactivity (PSR sort gate)

// known answers, use as guide
QVQLVLSGGGLVQAGGSLRLSCAASGNTIIRYAMGWYRQEPGKESELVAAISYSGGRTYYADSVKGRFTISRDNAKNTVYLQMNSLKPEDTAVYYCAARYYRSGYRKKIYYWGQGTQVTVSS high polyreactivity
QVQLVESGGGLVQAGGSLRLSSAASGLTFALYAMGWYRQAPGKERELVATISRGASTNYADSVKGRFTISRDNTKNTVYLQMNSLKPEDTAVYYWAVALRSTPRTREVRPSPRVYYWGQGTQVTVSS high polyreactivity
QVQLVESGGGLVQAGGSLRISCAASGFTFVSNDMGWYRQAPGKERELVAAISQGGGSTYYADSVKGRFTISRDNAKNTVYLQMNSLKPEDTAVYYCAADIWARYYFWGFEHDYWGQGTQVTVSS low polyreactivity
QVQLVESGGCLVQAGGSLRLSCAASGSIFLSNAMGWYRQAPGKERELVATIDDNGGSTYYADSVKGRFTISRDNAKNTVYLQMNSLKPEDTAVYYCAKQVRVWDLYYYLEEGYWGQGTQVTVSS low polyreactivity
QVQLVESGGGLVQAGASLRLSCAASGFTFVHYALGWYRQAPGKERELVAAITWNGGRTYYADSVQGRFTISRDNAKNTVYFQMNSLKPEDTAVYYCNAVRITYGRYDLDYWGQGTQVTVSS high polyreactivity
QVQLVESGGGLVQAGGSLRLSCAASGRTFAVYSMGWYRQATGKERELVAVISSGGGTDYADSVKGRFRISRDNAKNTVYLQMNSLNPEDTAVYYCAADSVTFLATQPGDYWGQGTQVTVSS low polyreactivity
QVQLVESGGGLFQAGGSLRLSCAASGSTFDVNTMGGYRQAPGKERELVAAIRLRGGSTYYADSVKGRFTISRYNAKNTVYLQMNSLKPEDTAVYYCAARYPWVYYDFDYWGQGTQVTVSS low polyreactivity
QVQLVESGGGLVQAGGSQRLSCAASGSIFDLKAMGSYRQAPGKERELVAAISSGGGTYYADSVKGRFTISRDNAKNTVYLQMNSLKPEDTAVYYCNRVTRWTYNYWGQGTQVTVSS high polyreactivity
QVQLVESGGGLVQAGGSLRLSCAASGIIFYWYAMGWYRQAPGKERELVAGIDSDGSTNYADSVKGRFTISRDNAKNTVYLQMNSLKPEDTAVYYCAAVQGYRFYESYYWGQGTQVTVSS low polyreactivity
QVQLVESGGLLVQAGGSLRLSCAASGRIFNYNAMGWYRQAPGKERELVAAIDSGGRTNYADSVKARFTISRDNAKNTGYLQMNSLKPEDTAVYYCNREAAHGSLRWTEMEYWGQGTQVTVSS low polyreactivity

Request: GET /values?readout=polyreactivity (PSR sort gate)&item= QVQLVESRGGLVQAGGSLRLSCAASGYIFGDYAKGWYRQAPGKERELVAAITQTGGNTYYADSVKGRFTISRDNAKKTVYLQMNSLKPEDTAVYYCAAPALGNYFYGYDYWGQGTQVTVSS
Result: low polyreactivity
